Source listed as ChEMBL document CHEMBL5727000.

protocolText: RORgamma Gal4 Reporter Gene Assay (REN): Cells were incubated for additional 16 h before renilla (REN) luciferase activities were measured sequentially in the same cell extract using a Dual-Light-Luciferase-Assay system (Dyer et al., Anal. Biochem. 2000, 282:158). All experiments were done at least in triplicates.
As shown below, each of these compounds has a reported IC50 value.
Number in nM, nothing else.

Use these answered entries as a reference point.
CC(C)(C)NS(=O)(=O)c1ccc(-c2nc(C(=O)NC3CCS(=O)(=O)CC3)sc2CC2CCCCC2)c2ccccc12 1
CC(C)(O)CNC(=O)c1nc(C(=O)C2CCC(C)(C)CC2)c(-c2ccc(S(=O)(=O)NC(C)(C)C)c3ccccc23)s1 31.6
CC1CCN(C(=O)c2nc(C(=O)NCC(C)(C)O)sc2-c2ccc(S(=O)(=O)NCC(F)(F)F)c3ccccc23)CC1 39.8

// query Looking for the measured IC50 of CC(C)COc1cc(-c2sc(C(=O)N[C@H]3C[C@H](C(=O)O)C3)nc2CC2CCCCC2)cc(C(C)(C)C)n1 , can you help?
// result 39.8
